Tested on: UO-31 renal
assay protocol: NCI tumour cell line growth inhibition, 48 h; in the data active = GI50 below about 0.43 µM; inactive = the rest
Labels: T = active, F = inactive

mol: c1cc(C2CCCCC2)ccc1-c1cnc2nonc2n1
class name: F

mol: C=C1C(=O)O[C@H]2[C@H]1CC/C(COC(=O)CCCCCCCC(=O)OC/C1=C/CC[C@@]3(C)O[C@H]3[C@H]3OC(=O)C(=C)[C@@H]3CC1)=C\CC[C@@]1(C)O[C@@H]21
class name: F

mol: COc1cc2c(NC3CCN(C(C)C)CC3)nc(C3CCCCC3)nc2cc1OCCCN1CCCC1
class name: F

mol: O=C(N/N=C/c1cc(Cl)ccc1O)c1ccccc1Nc1ccnc(C(F)(F)F)c1
class name: T

mol: CC(=O)CCc1ccc(Oc2c3c(nc4ccccc24)OCC3)cc1
class name: F
